All values here come from PubChem BioAssay (NCATS).

Tested on: Zika virus NS2B-NS3 protease (linked construct)
Assay: Primary screen NINDS Rhodamine qHTS for Zika virus inhibitors (AID 1347160); also: nearly all actives have a fitted effect of over 55% in size
Details: purified NS2B-NS3 protease, Rhodamine110 substrate fluorescence; series mostly up to 57.1 µM
Excerpt: Avindra Nath, Ph.D., National Institute of Neurological Disorders and Stroke (NINDS), Bethesda, MD Radhakrishnan Padmanabhan, Ph.D., Georgetown University (GU), Washington D.C. Zika Virus causes congenital defects, including microcephaly and is associated with Guillain-Barre syndrome, eningoencephalitis and myelitis in infected adult. […]
Records with an inconclusive call do not appear. Activity calls are given as the source filed them. Calls follow the shape of the dose curve; as a rule, active = well fitted inhibition curve with a large enough effect; inconclusive = small, poorly fitted or top-dose-only effect; inactive = no such curve, though single readings can be large or run the other way.
Classes used: YES = active, NO = inactive

MOLECULE	ASSIGNED CATEGORY
C/C=C/C1=CC2=C(CO1)C(=O)C(C)(O)C(OC(=O)c1c(C)cc(OC)cc1O)C2 (stereo not drawn)	NO
O=C(CCc1ccccc1)N1CCC(O)(Cn2cnc3cc(Cl)ccc3c2=O)CC1	NO
CO[C@@H](C)Cn1c(=O)n(C)c2cnc3ccc(-c4cncc(C(C)(C)O)c4)cc3c21	NO
CC(C)c1cccc2c(-c3ccccc3)cc(-c3ccc(-c4ccc(C(=O)O)cc4)[nH]3)nc12	YES
C=C(CO[C@@H]1O[C@H](CO[C@@H]2OC[C@](O)(CO)[C@H]2O)[C@@H](O)[C@H](O)[C@H]1O)C1Cc2cc(C(C)=O)ccc2O1 (stereo partly drawn)	NO
C=C(C(=O)OC)C1C(O)CC2(C)C(=O)CCC(O)(CO)C2C1O (stereo not drawn)	NO
C[C@@H]1O[C@@H](O[C@H]2[C@@H]3C=CO[C@@H](O[C@@H]4O[C@H](CO)[C@@H](O)[C@H](O)[C@H]4O)[C@@H]3[C@@]3(CO)O[C@@H]23)[C@H](OC(=O)/C=C/c2ccc(O)c(O)c2)[C@H](O)[C@H]1O	NO
COc1cc2ncnc(Nc3cccc(O)c3)c2cc1OC	NO
CC(C)(C#N)c1ccc(N2C(=O)OCc3cnc4ccc(-c5cnc6ccccc6c5)cc4c32)cc1	NO
CC(C)(C)c1ccc(S(=O)(=O)NCc2ccc(C(=O)Nc3cccnc3)cc2)cc1	NO
CCOc1ccc(S(=O)(=O)n2c(C)nc3ccccc32)cc1	NO
C=C1C[C@]23C[C@H]1CC[C@H]2[C@@]12CC[C@H](O)[C@@](C)(C(=O)O1)[C@H]2[C@@H]3C(=O)O	NO
CC[C@@H](N)CNc1ccnc(-c2cc(-c3cnn(C)c3)ccc2O)n1	NO
Cc1c2cc(c(C(=O)O)c1C)OC1OC(C(O)C(O)C1O)C(O)C(O)C1OC(O2)C(O)C(O)C1O (stereo not drawn)	NO
CC(C)(C)NS(=O)(=O)c1cncc(-c2cc(F)c3nc(N)nn3c2)c1	NO
COc1cc(NC(=O)Nc2cccc(CNC(=O)O[C@H]3CCOC3)c2)ccc1-c1cnco1	NO
CN1CCC(Nc2nc(Nc3ccc(Oc4ccccc4)cc3)c3c(=O)[nH]cc(Br)c3n2)CC1	NO
COc1c(Nc2ncc(Cl)c(N[C@H]3[C@@H](C(N)=O)[C@@H]4C=C[C@H]3C4)n2)ccc2c1CC[C@@H](N1CCOCC1)CC2	NO

---

Test: qHTS assay to identify inhibitors of the type 1 interferon - major histocompatibility complex class I in skeletal muscle: Counter screen cell viability and HiBit confirmation (AID 1347412); also: potency is read from the fitted curve at half-maximal effect; nearly all actives have a fitted effect of over 60% in size
Conditions: iHSKM muscle cells + IFN-b, HiBiT or CellTiter-Glo, 24 h; HiBiT
Inconclusive results are not listed. Activity calls are given as the source filed them. Calls follow the shape of the dose curve; as a rule, active = well fitted inhibition curve with a large enough effect; inconclusive = small, poorly fitted or top-dose-only effect; inactive = no such curve, though single readings can be large or run the other way.

COMPOUND	Potency
CC(C)c1c2cc(-c3ccnc(NC4CCC(NC5CCOCC5)CC4)n3)ccc2nn1C (stereo not given)	0.249 µM (active)
CCS(=O)(=O)N1CCN(c2ccc(Nc3ncc(C(N)=O)c(NC4CC4)n3)cc2)CC1	1.98 µM (active)
CC(C)c1cc(CNc2nc(Nc3cc(C4CC4)[nH]n3)cc(N3CCN(C)CC3)n2)on1	1.98 µM (active)
Cc1cc(Nc2cc(N3CCN(C)CC3)nc(/C=C/c3ccccc3)n2)n[nH]1	11.1 µM (active)
CN1CCN(c2ccc(C(=O)Nc3n[nH]c4ccc(Cc5cc(F)cc(F)c5)cc34)c(NC3CCOCC3)c2)CC1	17.6 µM (active)
CCOc1cc(C(=O)N2CCC(N3CCN(C)CC3)CC2)ccc1Nc1ncc2c(n1)N(C1CCCC1)c1ccccc1C(=O)N2C	12.5 µM (active)
CCN1CCN(Cc2ccc(NC(=O)c3ccc(C)c(/C=C/c4cnc5[nH]ccc5c4OC)c3)cc2C(F)(F)F)CC1	6.25 µM (active)
c1cc(Nc2cc(C3CC3)[nH]n2)nc(Nc2ccc3nc[nH]c3c2)n1	1.4 µM (active)
CN1CCN(C2CCC(n3cc(-c4ccc(Oc5ccccc5)cc4)c4c(N)ncnc43)CC2)CC1 (stereo not given)	15.7 µM (active)
COc1cc2ncnc(Nc3ccc(F)c(Cl)c3)c2cc1NC(=O)/C=C/CN1CCCCC1	19.8 µM (active)
CCCCc1nc2cc(/C=C/C(=O)NO)ccc2n1CCN(CC)CC	1.11 µM (active)
COc1cccc(Nc2ncnn3ccc(CN4CC[C@@H](N)[C@H](O)C4)c23)c1	6.25 µM (active)
CCN1CCN(Cc2ccc(NC(=O)Nc3ccc(Oc4cc(NC)ncn4)cc3)cc2C(F)(F)F)CC1	5.57 µM (active)
NC[C@@](O)(c1ccc(Cl)cc1)c1ccc(-c2cn[nH]c2)cc1	6.25 µM (active)
Cc1ccc(NC(=O)Nc2cc(C(F)(F)F)ccc2F)cc1Nc1ccc2c(c1)NC(=O)/C2=C\c1ccc[nH]1	31.3 µM (active)

---

Test system: OV90
Assay: Primary qHTS to identify gynecologic anti-cancer compounds using libraries of approved drugs and bioactive compounds (AID 1345084); also: % is scaled to controls: 0 for no effect and ±100 for the full control effect; nearly all actives have a fitted effect of over 55% in size
Settings: Gynecologic cancer cell panel viability, ATPlite luminescence, 48 h; series mostly up to 57.5 µM
Records with an inconclusive call do not appear. Calls of active or inactive are those of the source. Calls follow the shape of the dose curve; as a rule, active = well fitted cell-killing curve with a large enough effect; inconclusive = small, poorly fitted or top-dose-only effect, or effect the other way; inactive = flat fitted curve, though single readings scatter.

MOLECULE	activity change, negative = cytotoxicity
CC1(C)CC[C@]2(C(=O)O[C@@H]3O[C@H](CO[C@@H]4O[C@H](CO)[C@@H](O)[C@H](O)[C@H]4O[C@@H]4O[C@H](CO)[C@@H](O)[C@H](O)[C@H]4O)[C@@H](O)[C@H](O[C@@H]4O[C@H](CO)[C@@H](O)[C@H](O)[C@H]4O)[C@H]3O)CC[C@]3(C)C(=CCC4[C@@]5(C)CC[C@@H](O)[C@@](C)(C(=O)O[C@@H]6O[C@H](CO)[C@@H](O)[C@H](O)[C@H]6O)C5CC[C@]43C)[C@@H]2C1 (some centres not stated)	-0.699% [at 6.55 µM] (inactive)

---

Biological target: Cytochrome P450 2C9 (Homo sapiens) (UniProt P11712)
Sequence (P11712 whole entry, looked up): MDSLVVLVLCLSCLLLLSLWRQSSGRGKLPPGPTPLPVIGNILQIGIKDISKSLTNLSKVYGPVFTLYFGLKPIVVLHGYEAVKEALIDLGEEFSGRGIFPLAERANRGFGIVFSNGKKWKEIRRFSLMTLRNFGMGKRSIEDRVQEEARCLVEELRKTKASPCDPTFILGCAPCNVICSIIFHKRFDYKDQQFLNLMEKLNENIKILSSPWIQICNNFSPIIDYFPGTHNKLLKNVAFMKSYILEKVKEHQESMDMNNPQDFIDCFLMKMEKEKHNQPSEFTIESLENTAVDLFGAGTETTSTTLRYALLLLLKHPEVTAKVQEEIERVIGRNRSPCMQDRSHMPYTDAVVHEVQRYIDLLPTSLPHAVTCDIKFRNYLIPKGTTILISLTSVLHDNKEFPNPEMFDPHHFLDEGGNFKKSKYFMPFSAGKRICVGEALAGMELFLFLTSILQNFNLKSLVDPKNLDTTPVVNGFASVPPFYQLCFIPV
Experiment: Cytochrome P450 family 2 subfamily C member 9 (CYP2C9) small molecule antagonists: luciferase biochemical (cell-free) qHTS assay (AID 1645842); also: nearly all actives have a fitted effect of over 55% in size
Settings: P450-Glo CYP2C9 enzyme assay, luciferin luminescence; series mostly up to 57.4 µM
From the text: National Center for Advancing Translational Sciences [NCATS] Assay Overview: Cytochrome P450 (CYP) enzymes are membrane-bound hemeproteins that play a key role in metabolism of drugs and xenobiotics. Assaying the effect of chemicals on CYP isozymes is useful to minimize the adverse drug reactions and toxicities in drug development process. […] The luciferin products formed are detected with a luciferin detection reagent, and the amount of light produced is proportional to CYP activity. […]
Inconclusive results are not listed. Calls of active or inactive are those of the source. Calls come from the whole dose curve; as a rule, active = well fitted inhibition curve with a large enough effect in the repeat runs; inconclusive = weak or mixed curves; inactive = no such curve, though single readings can be large or run the other way.
Classes used: active, inactive

COMPOUND	ASSIGNED CATEGORY
COc1ccccc1NC(=O)OCC1CCN(C(=O)OC(C)(C)C)CC1	inactive
Cn1c2ccc(F)cc2c2c(C(=O)N3CCCC3)cn(-c3ccccc3)c(=O)c21	active
Cc1ccc(S(=O)(=O)n2ccc(-c3c(-c4ccc(Cl)cc4)noc3C)n2)cc1	active
O=C(NCC(O)CO)c1ccncc1Nc1ccc(I)cc1F (stereo unspecified)	active
CN(C)CCn1cc(S(=O)(=O)c2cccc(F)c2)c2cccnc21	inactive
Cc1cc(C(=O)Nc2cccc(C(=O)Nc3cccc(C(F)(F)F)c3)c2)on1	active
COc1ccc(CNC(=O)c2sc3nc(C)cc(C)c3c2N)cc1	active
CN(C)c1nc(NC2CCC(NCCc3ccc(Br)cc3OC(F)(F)F)CC2)nc2ccccc12 (stereo unspecified)	active
CC1(C)CC(NC(=O)C(=O)Nc2ccc(Br)cc2)CC(C)(C)N1	inactive
Cc1ccc(NC(=O)C(=O)NC2CC(C)(C)NC(C)(C)C2)cc1	inactive
CN(CCc1ccc(Nc2ncc(-c3cccnc3)s2)cc1)Cc1ccccc1	active
O=C(CCc1ccccc1)N1CCC(O)(Cn2cnc3cc(Cl)ccc3c2=O)CC1	active
CN1CCN(C2CCC(n3cc(-c4ccc(Oc5ccccc5)cc4)c4c(N)ncnc43)CC2)CC1 (stereo unspecified)	inactive
O=C(c1ccccc1)c1ccc2nc(NC(=O)c3csc(C4CCN(c5ncnc6ccsc56)CC4)n3)[nH]c2c1	active
Cc1nc2ccc(Oc3ccc(F)cc3)cc2c(=O)n1C[C@H]1CCCN(C(C)C)C1	inactive
O=C(c1cccc(Cl)c1F)N1CCN(Cc2cccc(Nc3nccs3)n2)CC1	active
COc1ccc(Oc2cc(C)c(-c3csc(NC(=O)c4ccncc4)n3)c(C)c2)cc1	active
COc1ccc(CC2NCCc3c2[nH]c2ccc(C)cc32)cc1OC (stereo unspecified)	active
O=C(NCc1ccc(F)cc1)C(=O)c1c[nH]c2ccccc12	active
COc1ccc(CCO[C@@H]2CCCC[C@H]2N2CC[C@@H](O)C2)cc1OC	inactive
COc1ccc2[nH]c3c(-c4cccc5ccccc45)nccc3c2c1	active
O=C(NCc1ccc(S(=O)(=O)c2cc(F)cc(F)c2)cc1)c1ccc2nccn2c1	inactive
Cc1nc2sc(C(=O)NCc3ccncc3)c(N)c2c(C)c1Cl	inactive
Nc1ccccc1N	active
COc1ccc(C(=O)Nc2ncc(-c3ccc(C(=O)O)cc3)s2)cc1	active
O=C(Nc1ccc(S(=O)(=O)Nc2nccs2)cc1)C(c1ccccc1)c1ccccc1	active
COc1ccc(CNC(=O)c2cc(-c3cncc(C)c3)ncc2-c2nccs2)nc1OC	active
N#Cc1ccc2[nH]cc(CCCCN3CCN(c4ccc5oc(C(N)=O)cc5c4)CC3)c2c1	active
CCCCNc1ncc2c(-c3ccc(CN4CCN(C)CC4)cc3)cn(C3CCC(O)CC3)c2n1 (stereo unspecified)	active
O=C1CC2(CCCC2)[C@H](O)C(=O)N1CCCCN1CCN(c2ncccn2)CC1	active
CCC(C(=O)O)c1ccc(N2Cc3ccccc3C2=O)cc1 (stereo unspecified)	inactive
COc1ccc(C(=O)C2CCN(CC(=O)N(Cc3nc4c(c(=O)[nH]3)COCC4)CC3CC3)CC2)cc1	active
O=C(c1cc2c(cc1F)OC(c1ccc(F)cc1)(c1ccc(Cl)cc1Cl)O2)N1CCOCC1 (stereo unspecified)	active
CC(C)(C#N)c1ccc(N2C(=O)OCc3cnc4ccc(-c5cnc6ccccc6c5)cc4c32)cc1	active
Cc1cccc(S(=O)(=O)N2CCC[C@@H]2CCN2CCC(C)CC2)c1	inactive
COc1cc(N2CCC(N3CCN(C)CC3)CC2)ccc1Nc1ncc(Cl)c(-c2c[nH]c3ccccc23)n1	active
C[C@@H]([C@@H](O)c1ccc(O)cc1)N1CCC(O)(c2ccccc2)CC1	inactive
Cc1cc(Nc2cc(N3CCN(C)CC3)nc(/C=C/c3ccccc3)n2)n[nH]1	inactive
c1ccc(-c2ncc(CN3CCN(c4ncccn4)CC3)[nH]2)cc1	active
Cc1ccc(-c2ccc3c(ccc4sc5c(c43)NC[C@@H](C)NC5=O)n2)cn1	inactive
CCN(CC)Cc1ccc(C(=O)N(CCc2ccccc2OC)[C@@H]2CCNC2)cc1	inactive
